Exercise: state measured z-score for each of the compounds provided.
Experiment Summary: JC-1 mitochondrial signal, unstimulated adipocytes – cell-based, JC-1 fluorescence, 3T3-L1 adipocytes, 24 h, 100 nL compound, profiling panel (AID 1168); note: test concentration not given here
Conditions: JC-1 mitochondrial fluorescence, higher = more signal, called active from +8 up or from −8 down
// no unit, no text: just the number

Consider the compound shown here: `N#Cc1ccc(-c2cccc(=O)o2)cc1` What is its recorded z-score?
0.492

Would you mind telling me what z-score value was observed for CC(=O)OCC1C2CC[C@H]3C(OCc4ccc(F)cc4C(F)(F)F)OC[C@]4(C)[C@H]3C2=C(CN4C(=O)OC(C)(C)C)[C@H](C)C1COC(C)=O (stereo partly drawn) ?
-0.984

Reported z-score, compound NC(=O)N1C(=O)C2C(C1=O)C1C=C(CCCO)C2C(C2CC2)N1Cc1sc2ccccc2c1Cl (stereo not drawn) : ____
0.0485

# lookup: z-score of `O=C(O)[C@H](Cc1ccccc1)n1cc(C2(O)CCCCC2)nn1`
-0.569

What value of measured z-score is listed for `COCCOC(=O)N1C(=O)[C@@]2(c3cc(C#CC4(O)CCCCCC4)ccc31)[C@H](c1ccc(O)cc1)N1[C@H](c3ccccc3)[C@H](c3ccccc3)OC(=O)[C@H]1[C@@H]2C(=O)N1CCCCCCC1` ?
-0.943

Entry under review: `COCCCNC(=O)[C@@]1(CCC(=O)OC(C)(C)C)COC(c2ccc(OCCCO)cc2)=N1` . Reported z-score?
-1.05

Any idea what z-score was measured for `CC(C)=C1C(=O)C(c2ccccc2)=C2CN3C(=O)N(CCc4ccccc4)C(=O)[C@]3(C)[C@H]21` ?
-1.43

Which measured z-score value corresponds to C=CC1c2cc(O)c(OC)cc2CCN1C (stereo not drawn) ?
-0.82

###

Target System: E3 ubiquitin-protein ligase XIAP (Homo sapiens)
Experiment Summary: small molecules binding XIAP protein – biophysical, small-molecule microarray, fluorescence 635 nm, primary screen (AID 1181);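 note: score merges 667 nm emission and signal to noise over triplicate slides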
Conditions: higher = more signal
Given measured composite z-score, output class 1 if it is greater than or equal to -0.02 and class 0 if not.

composite z-score >= -0.02 for `COCCOC(=O)N1C(=O)[C@@]2(c3cc(C#CCC(C(=O)OC)C(=O)OC)ccc31)[C@H](c1ccc(O)cc1)N1[C@H](c3ccccc3)[C@H](c3ccccc3)OC(=O)[C@H]1[C@@H]2C(=O)Nc1nc2ccccc2s1` ?
class 0

Quick check, composite z-score >= -0.02? `C=C(CCCC)C(=O)CC[C@@H](OC(=O)c1ccccc1-c1ccccc1C(=O)O)c1ccccc1OCCO`
class 1

Check if composite z-score >= -0.02 (inclusive). Item: `C[N+](C)(C)CCCC[C@@H]1NC(=O)[C@@H]2C[C@H](C(=O)NCc3ccc(F)cc3)[C@H](c3ccc(O)cc3)N2C1=O`
class 1

In plain terms: is recorded composite z-score at least -0.02 for C=CCC(OC(C)=O)[C@@H]1[C@@H](N(Cc2ccc(-c3cccc(C(F)(F)F)c3)o2)C(=O)c2ccc(-c3ccccc3)cc2)c2cc(OCCCO)ccc2N1C(=O)c1ccc2ccccc2c1 (stereo partly drawn) ?
class 0

Quick check, composite z-score >= -0.02? `COCCn1c(C(=O)N(C)C)cc2c1C[C@H]1CN(C(=O)c3ccccc3)[C@@](Cc3ccc(OC)cc3)(C(=O)OC)[C@@H]21`
class 1

Given the entry `O=C1O[C@H](c2ccccc2)[C@H](c2ccccc2)N2[C@H]1[C@@H](C(=O)O)[C@]1(C(=O)Nc3ccc(C#CCCO)cc31)[C@H]2c1ccc(OCCO)cc1` , answer whether its composite z-score meets or surpasses -0.02.
class 0

composite z-score >= -0.02 for `CCOC(=O)C1=CC[C@@H](c2ccccc2)N(S(=O)(=O)c2ccc(C)cc2)[C@H]1c1ccccc1I` ?
class 0

Is composite z-score at least -0.02? Consider `COc1ccc([Si](C)(C)[C@@H]2[C@@H](CC(=O)N(CCO)Cc3ccccc3)O[C@]3(C(=O)N(Cc4ccc(I)cc4)c4ccccc43)[C@H]2C)cc1`
class 0

Please indicate if the recorded composite z-score for CCOc1cc(C(O)C2C=CC3C(=O)N(c4ccccc4)C(=O)C3N2Nc2ccccc2F)ccc1O (stereo not drawn) meets or exceeds -0.02.
class 0

Given `COCCOC(=O)N1C(=O)[C@@]2(c3cc(C#CCCO)ccc31)[C@H](C(N)=O)[C@H]1C(=O)O[C@H](c3ccccc3)[C@H](c3ccccc3)N1[C@@H]2c1ccccc1OCCO` , state whether its composite z-score is at least -0.02.
class 0

Record `COc1ccc(CCNC(=O)[C@@H]2c3ccccc3C(=O)N(Cc3ccccc3OC)[C@H]2c2ccc(CO)cc2)cc1` ; criterion: composite z-score no lower than -0.02. Met?
class 0

Would you say `COC(=O)[C@@]1(Cc2ccc(F)cc2)[C@H]2c3cc(C(=O)N(C)C)n(CCc4ccc(O)c(O)c4)c3C[C@H]2CN1C(=O)c1ccccc1` shows composite z-score at minimum -0.02?
class 1

Please tell me: is the compound `NCCCCCCNC(=O)[C@@H]1C[C@@H]2C(=O)N3CCC[C@H]3C(=O)N2[C@@H]1c1cccc(OCCO)c1` at or over -0.02 in terms of composite z-score?
class 1

All values here come from PubChem BioAssay.
